- SUBJECT_OF_TEST: motilin receptor (Oryctolagus cuniculus, UniProt G1T803)
- Construct: from tissue; host or cells: rabbit antral smooth muscle membranes
- Sequence (G1T803 1-400): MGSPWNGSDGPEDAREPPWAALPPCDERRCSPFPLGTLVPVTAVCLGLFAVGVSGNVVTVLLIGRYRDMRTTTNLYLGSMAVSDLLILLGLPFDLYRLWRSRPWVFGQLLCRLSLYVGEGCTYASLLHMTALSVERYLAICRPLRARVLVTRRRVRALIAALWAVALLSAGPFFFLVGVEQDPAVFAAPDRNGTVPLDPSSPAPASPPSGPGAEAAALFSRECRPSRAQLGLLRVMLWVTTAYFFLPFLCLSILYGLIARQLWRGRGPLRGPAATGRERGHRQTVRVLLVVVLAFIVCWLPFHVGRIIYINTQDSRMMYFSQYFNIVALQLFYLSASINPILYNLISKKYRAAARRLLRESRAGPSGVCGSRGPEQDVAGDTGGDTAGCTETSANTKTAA
- EXPERIMENT_SUMMARY: Determination of motilin receptor binding affinity (displacement of [125I-Tyr7, Nle13]motilin(porcine))
- Parameters: species or system rabbit
- CONDITION_CONTEXT: negative logarithm of the concentration displacing 50% of [125I-Tyr7, Nle13]motilin(porcine) from rabbit antral smooth muscle membranes; read-out: pIC50 (converted)
Square brackets hold non-standard residues; d marks the D form. Peptide text beside a SMILES is read from it. * marks the point of attachment. X1 = C[N+](C)(C)[C@@H](Cc1ccccc1)C(=O)*; NMeF = CN[C@@H](Cc1ccccc1)C(=O)O
The threshold is 0.7 nM. Values of IC50 beneath it are tagged 1; values meeting or exceeding it are tagged 0.

Some solved cases for reference:
INPUT: API: query returns whether the compound falls strictly under 0.7 nM in IC50. Query: CC[C@H](C)[C@H](NC(=O)[C@H](C)NC(=O)[C@@H](NC(=O)[C@H](Cc1ccccc1)NC)C(C)C)C(=O)N[C@@H](Cc1ccccc1)C(=O)N[C@H](C(=O)N[C@@H](Cc1ccc(O)cc1)C(=O)NCC(=O)N[C@@H](CCC(=O)O)C(=O)N[C@@H](CC(C)C)C(=O)N[C@@H](C)C(=O)N[C@H](CCCNC(=N)N)C(=O)N[C@@H](CC(C)C)C(=O)N[C@@H](CCCCN)C(N)=O)[C@@H](C)O (H-[NMeF]VAIFTYGELA[dR]LK-NH2)
OUTPUT: 0

INPUT: Criterion: IC50 strictly below 0.7 nM. Is it met by CC[C@H](C)[C@H](NC(=O)[C@H](C)NC(=O)[C@@H](NC(=O)[C@H](Cc1ccccc1)NC)C(C)C)C(=O)N[C@@H](Cc1ccccc1)C(=O)N[C@H](C(=O)N[C@@H](Cc1ccc(O)cc1)C(=O)NCC(=O)N[C@@H](CCC(=O)O)C(=O)N[C@@H](CC(C)C)C(=O)N[C@@H](CCC(N)=O)C(=O)N[C@H](CCCNC(=N)N)C(=O)N[C@@H](CC(C)C)C(=O)N[C@@H](CCCCN)C(N)=O)[C@@H](C)O (H-[NMeF]VAIFTYGELQ[dR]LK-NH2) ?
OUTPUT: 1

INPUT: Record CC[C@H](C)[C@H](NC(=O)[C@@H]1CCCN1C(=O)[C@@H](NC(=O)[C@H](Cc1ccccc1)NC)C(C)C)C(=O)N[C@@H](Cc1ccccc1)C(=O)N[C@H](C(=O)N[C@@H](Cc1ccc(O)cc1)C(=O)NCC(=O)N[C@@H](CCC(=O)O)C(=O)N[C@@H](CC(C)C)C(=O)N[C@@H](CCC(N)=O)C(=O)N[C@H](CCCNC(=N)N)C(=O)N[C@@H](CC(C)C)C(=O)N[C@@H](CCC(N)=O)C(N)=O)[C@@H](C)O (H-[NMeF]VPIFTYGELQ[dR]LQ-NH2) : is its IC50 strictly below 0.7 nM?
OUTPUT: 0

Now examine the next entry.
INPUT: Problem: For the compound CC[C@H](C)[C@H](NC(=O)[C@H](C)NC(=O)[C@@H](NC(=O)[C@H](Cc1ccccc1)[N+](C)(C)C)C(C)C)C(=O)N[C@@H](Cc1ccccc1)C(=O)N[C@H](C(=O)N[C@@H](Cc1ccc(O)cc1)C(=O)NCC(=O)N[C@@H](CCC(=O)O)C(=O)N[C@@H](CC(C)C)C(=O)N[C@@H](C)C(=O)N[C@H](CCCNC(=N)N)C(=O)N[C@@H](CC(C)C)C(=O)N[C@@H](CCC(N)=O)C(N)=O)[C@@H](C)O (X1-VAIFTYGELA[dR]LQ-NH2) , is IC50 under 0.7 nM?
OUTPUT: 0
